target of assay: purified catalytic domain of recombinant human TACE (rhTACEc) (Homo sapiens, UniProt P78536, N452Q/S266A)
Construct: Residue 215 to 477 with two mutation (S266A and N452Q) and a 6×His tail; 6xHis (C); made in house; host or cells: baculovirus/Hi5 insect cells
Sequence (P78536 215-477 S266A/N452Q): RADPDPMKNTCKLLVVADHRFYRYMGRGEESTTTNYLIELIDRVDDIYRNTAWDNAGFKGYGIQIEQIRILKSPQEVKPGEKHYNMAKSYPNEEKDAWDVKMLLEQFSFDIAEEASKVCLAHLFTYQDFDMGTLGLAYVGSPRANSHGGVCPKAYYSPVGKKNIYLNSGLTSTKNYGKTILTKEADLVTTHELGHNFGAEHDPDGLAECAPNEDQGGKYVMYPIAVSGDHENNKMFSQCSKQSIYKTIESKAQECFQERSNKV
experimental protocol: TACE kinetic assay: cleavage of internally quenched peptide substrate SPDL-3, fluorescence
Type: biochemical
condition context: TACE inhibitory activity, class symbols; read-out: Ki
parameter measured: Ki

compound: CNc1nc(C2(C)CCCN2C(=O)[C@H](O)[C@@H](O)C(=O)N[C@H](C)c2ccc(-n3cccn3)cc2)cs1 (stereo partly drawn) [Compound 2244]
endpoint result: < 20 nM
--
compound: CC(C)Nc1nc([C@H]2c3ccccc3CN2C(=O)[C@H](O)[C@@H](O)C(=O)N[C@H](C)c2ccc(-n3cccn3)cc2)cs1 [Compound 2592]
endpoint result: < 20 nM
--
compound: Cc1noc([C@H]2c3ccccc3CN2C(=O)[C@H](O)[C@@H](O)C(=O)N[C@H](C)c2ccc(-n3cccn3)cc2)n1 (stereo in doubt) [Compound 2528]
endpoint result: < 20 nM
--
compound: C[C@@H](NC(=O)[C@H](O)[C@@H](O)C(=O)N1C2CCC1c1cc(F)c(F)cc12)c1ccc(-n2cccn2)cc1 [Compound 2096]
endpoint result: 100 to 1000 nM
--
compound: CCOc1ncccc1-c1ccc(CNC(=O)[C@H](O)[C@@H](O)C(=O)N2CCC[C@@H]2c2cccc(Cl)c2)cc1 [Compound 2334]
endpoint result: < 20 nM
--
compound: C[C@@H](NC(=O)[C@H](O)[C@@H](O)C(=O)N1CCC[C@@H]1c1csc(N2CCCCC2)n1)c1ccc(-n2cccn2)cc1 [Compound 2258]
endpoint result: 20 to 100 nM

* * *

Each entry below carries its reported pKi.
target of assay: purified catalytic domain of recombinant human TACE (rhTACEc) (Homo sapiens, UniProt P78536, N452Q/S266A)
Construct: Residue 215 to 477 with two mutation (S266A and N452Q) and a 6×His tail; 6xHis (C); made in house; host or cells: baculovirus/Hi5 insect cells
experimental protocol: TACE kinetic assay: cleavage of internally quenched peptide substrate SPDL-3, fluorescence
Assay type: biochemical
condition context: TACE inhibitory activity, class symbols; read-out: Ki
pKi: −log10 of the molar value.

molecule: C[C@@H](NC(=O)[C@H](O)[C@@H](O)C(=O)N1CCc2ccccc2[C@@H]1c1csc(N)n1)c1ccc(-n2cccn2)cc1
pKi: > 7.70

molecule: C[C@@H]1CN(c2ccc(F)cc2C#N)CCC1CNC(=O)[C@H](O)[C@@H](O)C(=O)N1CCCC1 (stereo partly drawn)
pKi: 7.00 to 7.70

molecule: C[C@@H](NC(=O)[C@H](O)[C@@H](O)C(=O)N1Cc2cccnc2C1)c1ccc(-n2cccn2)cc1
pKi: > 7.70

molecule: CNc1nc([C@H]2CC(F)(F)CN2C(=O)[C@H](O)[C@@H](O)C(=O)N[C@H](C)c2ccc(-n3cccn3)cc2)cs1
pKi: > 7.70

molecule: C[C@@H](NC(=O)[C@H](O)[C@@H](O)C(=O)N1CCC[C@@H]1c1csc(N(C)S(C)(=O)=O)n1)c1ccc(-n2cccn2)cc1
pKi: > 7.70

molecule: C[C@@H](NC(=O)[C@](C)(O)[C@@H](O)C(=O)N1Cc2cccnc2C1)c1ccc(-c2cccc(OCCC3CCCCC3)c2)cc1 [Compound 2353A]
pKi: 6.00 to 7.00
